B1: CPEB3 Ribozyme (parent)
chain: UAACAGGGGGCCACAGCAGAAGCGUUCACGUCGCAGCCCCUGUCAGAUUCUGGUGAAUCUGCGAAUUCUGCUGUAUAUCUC

Variants of: B1
Assay: self-cleavage, relative activity (ratio to wild type); higher = more cleavage; in vitro, sequencing
Recorded self-cleavage determines the label; the label ranges are LOW = under 0.3, MID = from 0.3 up to 0.5, HIGH = 0.5 and over

Solved cases below.
UAACAGGGGGCCACAGCAGAAGCGUUCACGCCGCAGCCCCUGUCAGAUUCUGGUGAAUCUGCGAAUUCUACUGUAUAUCUC [U31C G70A] :: LOW
UAACAGGGGGCCACAGCAGAAGCGUUCUCGUCGCAGCCCCUGUCAGAUUCUGGUGAACCUGCGAAUUCUGCUGUAUAUCUC [A28U U58C] :: MID
UAACAGGGGGCCACAGCAGAAGCGUUCACGUCGCAGCCCCUGUCAGAUUCUGGGGAGUCUGCGAAUUCUGCUGUAUAUCUC [U54G A57G] :: MID
UAACAGGGGGUCACAGCAGAAGCGUUCACGUCGCAGCCCCUGUCAGAUUCUGGUGAAUCUGUGAAUUCUGCUGUAUAUCUC [C11U C62U] :: LOW
UAACAGGGGGCCACAGCAGAAGCGUUCACGUUGCAGCCCCUGUCCGAUUCUGGUGAAUCUGCGAAUUCUGCUGUAUAUCUC [C32U A45C] :: LOW
UAACAGGGCGCCACAGCAGAAGCGUUCACGUCGCAGCCCCUGUCAGAUUCUGGUAAAUCUGCGAAUUCUGCUGUAUAUCUC [G9C G55A] :: MID

Band assignment needed for UAACAGGGGGCUACAGCAGAAGCGUUCACGUCGCAGCCCCUGUCUGAUUCUGGUGAAUCUGCGAAUUCUGCUGUAUAUCUC [C12U A45U] please. HIGH

Band assignment needed for UAACAGGGGGCCACAGCAGAAGCGUACACGUCGCCGCCCCUGUCAGAUUCUGGUGAAUCUGCGAAUUCUGCUGUAUAUCUC [U26A A35C] please. HIGH

Band assignment needed for UAACUGGGGGCCACAGCAGAAGCGUUCACGUCGCAGCCCCUGUCAGAUUCUGGUGAAUCUGCGAAUUCUGCUGUAUAUCUA [A5U C81A] please. HIGH

Band assignment needed for UAACAGGGGGCCACGGCAGAAGCGUUCACGUCGCAGCCCGUGUCAGAUUCUGGUGAAUCUGCGAAUUCUGCUGUAUAUCUC [A15G C40G] please. LOW

Band assignment needed for UAACAGGGGGCCACAGCAGAAGCGUUCACGUCGCAGCCCCUGUCAGAUUCUGGUGAAUCUGCGAAAUCUGCUGUAUAACUC [U66A U78A] please. MID

Band assignment needed for UAACAGGGGGCCACAGCAGAUGCGUUCACGUCGCAGCCCCUGUCAGAUUCUGGUGAAACUGCGAAUUCUGCUGUAUAUCUC [A21U U58A] please. MID
